test: Plasma pharmacokinetics in CIA model rats; type: in vivo; details: Lewis, rat, po, 0.3 mg/kg, 0.3 mg/kg oral, day 9, mean ± SD
Outcome measure: Cmax (ng/mL)

[
  {
    "Compound": "C=CC(=O)Nc1cccc(Oc2nc(Nc3ccc(N4CCN(C)CC4)cc3)nc3ccoc23)c1 [Poseltinib]",
    "Outcome measure": "Cmax",
    "Units": "ng/mL",
    "Endpoint value": 1.5
  }
]

---

IC50 values by entry
system: CTLL-2; experiment: IL-2 induced T cell proliferation in CTLL-2; format: cell-based; conditions: Mus musculus, cellular level
Outcome measure: IC50

[
  {
    "Compound": "C=CC(=O)Nc1cccc(Oc2nc(Nc3ccc(N4CCN(C)CC4)cc3)nc3ccoc23)c1 [Poseltinib]",
    "Measurement target": "CTLL-2",
    "Outcome measure": "IC50",
    "Endpoint value": "> 500 nM"
  },
  {
    "Compound": "C=CC(=O)Nc1cccc(Oc2nc(Nc3ccc(N4CCN(C(C)C)CC4)cc3)nc3ccoc23)c1 [HM71035]",
    "Measurement target": "CTLL-2",
    "Outcome measure": "IC50",
    "Endpoint value": "> 500 nM"
  }
]

---

assay: Plasma pharmacokinetics in CIA model rats; format: in vivo; details: Lewis, rat, 1 mg/kg oral, day 9, mean ± SD

[
  {
    "Input smiles": "C=CC(=O)Nc1cccc(Oc2nc(Nc3ccc(N4CCN(C)CC4)cc3)nc3ccoc23)c1",
    "AUC(0-t), ng·h/mL": 10
  }
]

---

test: Plasma pharmacokinetics in CIA model rats; type: in vivo; conditions: Lewis, rat, po, 3 mg/kg, 3 mg/kg oral, day 9, mean ± SD

[
  {
    "Input smiles": "C=CC(=O)Nc1cccc(Oc2nc(Nc3ccc(N4CCN(C)CC4)cc3)nc3ccoc23)c1",
    "Cmax, ng/mL": 22.6
  }
]

---

Assay: Plasma pharmacokinetics in CIA model rats
Type: in vivo
Details: Lewis, rat, 1 mg/kg oral, day 9, mean ± SD
Procedure: After drug administration, whole blood was collected from CIA model rats and human subjects at the indicated times. Plasma was obtained by centrifugation at 12,000 rpm for 2 min and stored at − 20 °C until analysis.

[
  {
    "Input smiles": "C=CC(=O)Nc1cccc(Oc2nc(Nc3ccc(N4CCN(C)CC4)cc3)nc3ccoc23)c1",
    "Units": "min",
    "Tmax": 30
  }
]

---

test: Plasma pharmacokinetics in CIA model rats; format: in vivo; conditions: Lewis, rat, 3 mg/kg oral, day 9, mean ± SD

[
  {
    "Input smiles": "C=CC(=O)Nc1cccc(Oc2nc(Nc3ccc(N4CCN(C)CC4)cc3)nc3ccoc23)c1",
    "AUC(0-t)": "49.9 ng·h/mL"
  }
]

---

target: BTK (Homo sapiens, UniProt Q06187); test: hBTK Lanthascreen biochemical activity
Sequence (Q06187 whole entry): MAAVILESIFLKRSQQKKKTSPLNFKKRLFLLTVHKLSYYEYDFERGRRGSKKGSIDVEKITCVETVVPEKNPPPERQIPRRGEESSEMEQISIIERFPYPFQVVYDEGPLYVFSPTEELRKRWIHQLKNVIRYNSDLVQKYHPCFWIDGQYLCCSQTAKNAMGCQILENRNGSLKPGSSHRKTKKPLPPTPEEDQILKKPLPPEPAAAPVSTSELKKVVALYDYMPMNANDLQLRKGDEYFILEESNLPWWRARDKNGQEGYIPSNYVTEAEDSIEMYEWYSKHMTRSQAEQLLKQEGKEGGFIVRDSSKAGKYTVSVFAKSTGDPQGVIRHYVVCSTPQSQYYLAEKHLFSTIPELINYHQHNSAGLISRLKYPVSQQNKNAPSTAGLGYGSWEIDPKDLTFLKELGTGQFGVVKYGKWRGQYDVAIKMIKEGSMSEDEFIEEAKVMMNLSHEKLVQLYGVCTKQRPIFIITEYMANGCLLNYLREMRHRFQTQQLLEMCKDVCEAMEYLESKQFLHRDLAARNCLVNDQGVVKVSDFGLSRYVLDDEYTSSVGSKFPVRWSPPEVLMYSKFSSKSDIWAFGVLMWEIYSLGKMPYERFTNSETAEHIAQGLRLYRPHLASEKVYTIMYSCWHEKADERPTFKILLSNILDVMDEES

[
  {
    "Input smiles": "C=CC(=O)Nc1cccc(Oc2nc(Nc3ccc(N4CCN(C(C)C)CC4)cc3)nc3ccoc23)c1",
    "Units": "nM",
    "IC50": 3
  },
  {
    "Input smiles": "C=CC(=O)Nc1cccc(Oc2nc(Nc3ccc(N4CCN(C)CC4)cc3)nc3ccoc23)c1",
    "Units": "nM",
    "IC50": 6
  }
]

---

biological target: UniProt:Q06187; experiment: BTK kinase activity, Z'-LYTE FRET biochemical assay; set-up: purchased Thermo Fisher Scientific PV3363; settings: mean ± S.D; read-out: IC50, hBTK biochemical assay
pIC50: −log10 of the molar value.

[
  {
    "Input smiles": "C=CC(=O)Nc1cccc(Oc2nc(Nc3ccc(N4CCN(C)CC4)cc3)nc3ccoc23)c1",
    "pIC50": 8.40
  }
]

---

Test: Plasma pharmacokinetics in CIA model rats
Type: in vivo
Details: Lewis, rat, po, 1 mg/kg, 1 mg/kg oral, day 9, mean ± SD
Experimental: After drug administration, whole blood was collected from CIA model rats and human subjects at the indicated times. Plasma was obtained by centrifugation at 12,000 rpm for 2 min and stored at − 20 °C until analysis.
Outcome measure: Cmax (ng/mL)

[
  {
    "Input smiles": "C=CC(=O)Nc1cccc(Oc2nc(Nc3ccc(N4CCN(C)CC4)cc3)nc3ccoc23)c1",
    "Endpoint value": 7.3
  }
]

---

assay: Plasma pharmacokinetics in CIA model rats; type: in vivo; settings: Lewis, rat, oral, all treatment groups (0.3, 1, 3 mg/kg), day 9, below LLOQ, read-out: plasma concentration at 4 h after drug administration
Outcome measure: concentration at 4 h

[
  {
    "Input smiles": "C=CC(=O)Nc1cccc(Oc2nc(Nc3ccc(N4CCN(C)CC4)cc3)nc3ccoc23)c1",
    "Endpoint value": "< 0.5 ng/mL"
  }
]

---

target: BTK (Rattus norvegicus); construct: endogenous in cells; CIA model rats ex vivo); assay: BTK occupancy molecular probe assay in rat PBMCs; details: 1 h treatment, biotinylated probe; read-out: IC50, BTK target modulation (occupancy) in rat PBMCs
Sequence (Q5S255 1-660): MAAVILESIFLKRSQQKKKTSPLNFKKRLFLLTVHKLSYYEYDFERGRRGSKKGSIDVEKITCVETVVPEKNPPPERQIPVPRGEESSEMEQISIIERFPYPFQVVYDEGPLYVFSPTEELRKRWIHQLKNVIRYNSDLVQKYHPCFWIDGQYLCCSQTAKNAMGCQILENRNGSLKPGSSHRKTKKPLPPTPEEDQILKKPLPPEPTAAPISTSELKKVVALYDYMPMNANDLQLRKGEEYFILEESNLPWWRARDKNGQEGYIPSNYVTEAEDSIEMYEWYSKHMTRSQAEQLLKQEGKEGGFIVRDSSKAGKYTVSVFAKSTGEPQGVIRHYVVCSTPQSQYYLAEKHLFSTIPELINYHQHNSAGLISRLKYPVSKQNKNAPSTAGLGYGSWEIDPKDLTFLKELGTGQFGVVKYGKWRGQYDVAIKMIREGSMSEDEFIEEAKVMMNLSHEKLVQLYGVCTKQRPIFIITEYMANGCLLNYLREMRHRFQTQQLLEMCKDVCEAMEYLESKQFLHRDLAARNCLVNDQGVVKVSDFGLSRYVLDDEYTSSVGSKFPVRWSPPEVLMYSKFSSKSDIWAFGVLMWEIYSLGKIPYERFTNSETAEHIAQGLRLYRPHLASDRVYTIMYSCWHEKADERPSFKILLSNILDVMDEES
pIC50: −log10 of the molar value.
Outcome measure: pIC50

[
  {
    "Compound": "C=CC(=O)Nc1cccc(Oc2nc(Nc3ccc(N4CCN(C)CC4)cc3)nc3ccoc23)c1 [Poseltinib]",
    "Measurement target": "BTK (Rattus norvegicus)",
    "Endpoint value": 7.84
  }
]

---

test: Plasma pharmacokinetics in CIA model rats; assay type: in vivo; details: Lewis, rat, 3 mg/kg oral, day 9, mean ± SD
Outcome measure: Tmax (h)

[
  {
    "Input smiles": "C=CC(=O)Nc1cccc(Oc2nc(Nc3ccc(N4CCN(C)CC4)cc3)nc3ccoc23)c1",
    "Outcome measure": "Tmax",
    "Endpoint value": 1.4
  }
]

---

molecular target: BTK (Homo sapiens, UniProt Q06187); test: Kinase selectivity biochemical assay (FRET), BTK; conditions: Supplementary Table 1, biochemical assay

[
  {
    "Molecule": "C=CC(=O)Nc1cccc(Oc2nc(Nc3ccc(N4CCN(C(C)C)CC4)cc3)nc3ccoc23)c1 [HM71035]",
    "IC50, nM": 3
  }
]

Source: paper PMC8455565
